assay: Pharmacokinetic analysis of compounds in rats; format: in vivo, SD rats; conditions: SD, rat, in vivo, po, 10 mg/kg
OBSERVED_PROPERTY: half-life (min)
Give just the number in min; leave the unit off.

                                   compound  test_result
0  C[C@H](c1cc(F)c2c(c1NC(=O)N[S@@](=N)(=O)c1cc(C(C)(C)O)co1)CCC2)C1CC1 (single isomer, unassigned)          144
1  CC(C)(O)c1coc(S(=O)(=O)NC(=O)Nc2c3c(cc4c2CCC4)CCC3)c1 [Control 3, reference compound]          126

Now consider a different compound.
Entry under test: C[C@@H](c1cc(F)c2c(c1NC(=O)N[S@@](=N)(=O)c1cc(C(C)(C)O)co1)CCC2)C1CC1 (single isomer, unassigned) . Its half-life was 126

----------
assay: Pharmacokinetic analysis of compounds in rats; type: in vivo, SD rats; details: SD rats, po (intragastric), 10 mg/kg, plasma
OBSERVED_PROPERTY: Cmax (ng/mL)
Give just the number in ng/mL; leave the unit off.

Below: 3 compounds and their reported Cmax.
                                   compound  test_result
0  CC(c1ccc2c(c1NC(=O)NS(=N)(=O)c1cc(C(C)(C)O)co1)CCC2)C1CC1 (racemic) [Compound 8-2]         6190
1  C[C@@H](c1ccc2c(c1NC(=O)NS(=N)(=O)c1cc(C(C)(C)O)co1)CC2)C1CC1 (mixture of isomers) [Compound 38-1]        13267
2  C[C@@H](c1ccc2c(c1NC(=O)NS(=N)(=O)c1cc(C(C)(C)O)co1)CCC2)C1CC1 (mixture of isomers) [Compound 6-2]         4073

Entry under test: C[C@@H](c1ccc2c(c1NC(=O)NS(=N)(=O)c1cc(C(C)(C)O)co1)CCC2)C1CC1 (mixture of isomers) [Compound 6-1] . Its Cmax was 13900

Entry under test: CC(c1ccc2c(c1NC(=O)NS(=N)(=O)c1cc(C(C)(C)O)co1)CC2)C1CC1 (racemic) [Compound 36-1] . Its Cmax was 33467

Entry under test: CC(c1ccc2c(c1NC(=O)NS(=N)(=O)c1cc(C(C)(C)O)co1)CCC2)C1CC1 (racemic) [Compound 8-1] . Its Cmax was 6397

----------
assay: Pharmacokinetic analysis of compounds in rats; type: in vivo, SD rats; conditions: SD rats, iv (tail vein), 1 mg/kg, plasma
# strict inequality: Cl < 8 mL/min/kg yields t, everything else yields f

Query: Item C[C@@H](c1ccc2c(c1NC(=O)NS(=N)(=O)c1cc(C(C)(C)O)co1)CCC2)C1CC1 (mixture of isomers) [Compound 6-2] : Cl beneath 8 mL/min/kg, strictly?
Reply: f

Query: Item C[C@@H](c1ccc2c(c1NC(=O)NS(=N)(=O)c1cc(C(C)(C)O)co1)CCC2)C1CC1 (mixture of isomers) [Compound 6-1] : Cl beneath 8 mL/min/kg, strictly?
Reply: t

Query: Item CC(c1ccc2c(c1NC(=O)NS(=N)(=O)c1cc(C(C)(C)O)co1)CC2)C1CC1 (racemic) : Cl beneath 8 mL/min/kg, strictly?
Reply: t

Query: Item CC(c1ccc2c(c1NC(=O)NS(=N)(=O)c1cc(C(C)(C)O)co1)CCC2)C1CC1 (racemic) [Compound 8-1] : Cl beneath 8 mL/min/kg, strictly?
Reply: t

----------
assay: Pharmacokinetic analysis of compounds in rats; assay type: in vivo, SD rats; settings: SD rats, po (intragastric), 10 mg/kg, plasma
Recorded measurements of AUC, one per entry
Give just the number in ng·h/mL; leave the unit off.

>>> df
                                   compound  observed_property  test_result
0  C[C@@H](c1ccc2c(c1NC(=O)NS(=N)(=O)c1cc(C(C)(C)O)co1)CCC2)C1CC1 (mixture of isomers) [Compound 6-2]                AUC        10920

Entry under test: C[C@@H](c1ccc2c(c1NC(=O)NS(=N)(=O)c1cc(C(C)(C)O)co1)CC2)C1CC1 (mixture of isomers) . Its AUC was 38823

Entry under test: C[C@@H](c1ccc2c(c1NC(=O)NS(=N)(=O)c1cc(C(C)(C)O)co1)CCC2)C1CC1 (mixture of isomers) [Compound 6-1] . Its AUC was 41521

Entry under test: CC(c1ccc2c(c1NC(=O)NS(=N)(=O)c1cc(C(C)(C)O)co1)CCC2)C1CC1 (racemic) [Compound 8-1] . Its AUC was 14367

Entry under test: CC(c1ccc2c(c1NC(=O)NS(=N)(=O)c1cc(C(C)(C)O)co1)CCC2)C1CC1 (racemic) [Compound 8-2] . Its AUC was 14484

Entry under test: CC(c1ccc2c(c1NC(=O)NS(=N)(=O)c1cc(C(C)(C)O)co1)CC2)C1CC1 (racemic) . Its AUC was 143938

----------
test: Pharmacokinetic analysis of compounds in rats; format: in vivo, SD rats; settings: SD rats, iv (tail vein), 1 mg/kg, plasma
Tag: met if measured AUC is not below 2000 ng·h/mL, not met if it is.

>>> print(df.to_string())
                                   compound  category_label
0  C[C@@H](c1ccc2c(c1NC(=O)NS(=N)(=O)c1cc(C(C)(C)O)co1)CC2)C1CC1 (mixture of isomers) [Compound 38-1]             met
1  C[C@@H](c1ccc2c(c1NC(=O)NS(=N)(=O)c1cc(C(C)(C)O)co1)CCC2)C1CC1 (mixture of isomers) [Compound 6-1]             met
2  CC(c1ccc2c(c1NC(=O)NS(=N)(=O)c1cc(C(C)(C)O)co1)CCC2)C1CC1 (racemic) [Compound 8-1]             met
3  C[C@@H](c1ccc2c(c1NC(=O)NS(=N)(=O)c1cc(C(C)(C)O)co1)CCC2)C1CC1 (mixture of isomers) [Compound 6-2]         not met
4  CC(c1ccc2c(c1NC(=O)NS(=N)(=O)c1cc(C(C)(C)O)co1)CC2)C1CC1 (racemic) [Compound 36-1]             met

Next up:
Query: Reported AUC at or above 2000 ng·h/mL? CC(c1ccc2c(c1NC(=O)NS(=N)(=O)c1cc(C(C)(C)O)co1)CCC2)C1CC1 (racemic) [Compound 8-2]
Reply: met

----------
test: Pharmacokinetic analysis of compounds in rats; format: in vivo, SD rats; settings: SD, rat, in vivo, iv, 1 mg/kg
OBSERVED_PROPERTY: clearance (mL/min/kg)
Give just the number in mL/min/kg; leave the unit off.

In [3]: df
Out[3]:
                                   compound  test_result
0  C[C@@H](c1cc(F)c2c(c1NC(=O)N[S@@](=N)(=O)c1cc(C(C)(C)O)co1)CCC2)C1CC1 (single isomer, unassigned)          8.6
1  C[C@H](c1cc(F)c2c(c1NC(=O)N[S@@](=N)(=O)c1cc(C(C)(C)O)co1)CCC2)C1CC1 (single isomer, unassigned)         10.5

Entry under test: CC(C)(O)c1coc(S(=O)(=O)NC(=O)Nc2c3c(cc4c2CCC4)CCC3)c1 [Control 3, reference compound] . Its clearance was 14.2

----------
test: Pharmacokinetic analysis of compounds in rats; type: in vivo, SD rats; conditions: SD rats, po 10 mg/kg vs iv 1 mg/kg
OBSERVED_PROPERTY: F % (%)
Give just the number in %; leave the unit off.

Below: 5 compounds and their reported F %.
                                   compound  observed_property  test_result
0  C[C@@H](c1ccc2c(c1NC(=O)NS(=N)(=O)c1cc(C(C)(C)O)co1)CCC2)C1CC1 (mixture of isomers) [Compound 6-2]                F %         65.9
1  C[C@@H](c1ccc2c(c1NC(=O)NS(=N)(=O)c1cc(C(C)(C)O)co1)CC2)C1CC1 (mixture of isomers) [Compound 38-1]                F %          184
2  CC(c1ccc2c(c1NC(=O)NS(=N)(=O)c1cc(C(C)(C)O)co1)CCC2)C1CC1 (racemic) [Compound 8-1]                F %         56.2
3  CC(c1ccc2c(c1NC(=O)NS(=N)(=O)c1cc(C(C)(C)O)co1)CCC2)C1CC1 (racemic) [Compound 8-2]                F %         66.7
4  C[C@@H](c1ccc2c(c1NC(=O)NS(=N)(=O)c1cc(C(C)(C)O)co1)CCC2)C1CC1 (mixture of isomers) [Compound 6-1]                F %         65.8

Now consider a different compound.
Entry under test: CC(c1ccc2c(c1NC(=O)NS(=N)(=O)c1cc(C(C)(C)O)co1)CC2)C1CC1 (racemic) [Compound 36-1] . Its F % was 98.5
